Data origin: patent US20190359687A1

Molecular target: T1, recombinant human GPA ectodomain (human, UniProt P02724 20-91)
T1 construct: also called recombinant hGPA ECD; recGPA
T1 sequence: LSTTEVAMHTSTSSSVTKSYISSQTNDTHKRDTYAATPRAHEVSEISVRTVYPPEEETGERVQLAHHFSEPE
Assay: ELISA, rec hGPA ectodomain
measurement-type: binding by ELISA relative to parental
Please state the value as a number alone, without comment.

binder	binding by ELISA relative to parental
TPP-5323 (Fab, V domains shown, also called VH: (D56G)) VH: EVQLVQSGAEVKKPGASVKVSCKASGYTFTTYTIHWVRQAPGQGLEWIGYINPSSGYTRYNPKFKDRVTLTTDKSTSTAYMELRSLRSDDTAVYYCQTGTRDYWGQGTTVTVSS VL: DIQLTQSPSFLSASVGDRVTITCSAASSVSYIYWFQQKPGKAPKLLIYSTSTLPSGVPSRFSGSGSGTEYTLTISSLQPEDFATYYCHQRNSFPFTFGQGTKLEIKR	1.64

Read the next record carefully.
Check the records and state binding by ELISA relative to parental for TPP-5330 (Fab, V domains shown, also called VH: (L70M)) VH: EVQLVQSGAEVKKPGASVKVSCKASGYTFTTYTIHWVRQAPGQGLEWIGYINPSSDYTRYNPKFKDRVTMTTDKSTSTAYMELRSLRSDDTAVYYCQTGTRDYWGQGTTVTVSS VL: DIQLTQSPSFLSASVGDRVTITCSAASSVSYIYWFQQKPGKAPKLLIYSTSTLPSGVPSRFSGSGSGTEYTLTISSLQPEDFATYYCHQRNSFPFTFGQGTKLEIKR 1.29
